method_description: Single-dose crossover bioavailability study, REP plasma levels by LC-MS/MS
Assay type: in vivo, rabbits
assay_conditions: male, albino, rabbit, po
value_type: Tmax
Give your result as the value with the unit written after it.

So what's the measured Tmax for this one? CCOc1cc(CC(=O)N[C@@H](CC(C)C)c2ccccc2N2CCCCC2)ccc1C(=O)O [Plain REP, Repaglinide]
1 h

###

method_description: Single-dose crossover bioavailability study, REP plasma levels by LC-MS/MS
Assay type: in vivo, rabbits
assay_conditions: male, albino, rabbit, po
value_type: AUC(0-inf) (ng·h/mL)
One number for each entry, in ng·h/mL.

So what's the measured AUC(0-inf) for this one? CCOc1cc(CC(=O)N[C@@H](CC(C)C)c2ccccc2N2CCCCC2)ccc1C(=O)O [Plain REP, Repaglinide]
95400

###

method_description: Single-dose crossover bioavailability study, REP plasma levels by LC-MS/MS
Type: in vivo, rabbits
assay_conditions: male, albino, rabbit, po
value_type: half-life (h)
Give bare numbers, in h.

So what's the measured half-life for this one? CCOc1cc(CC(=O)N[C@@H](CC(C)C)c2ccccc2N2CCCCC2)ccc1C(=O)O [Plain REP, Repaglinide]
1.31

Every entry's value here was drawn from paper PMC6432887.
